Where these numbers come from: ChEMBL document CHEMBL1671627

Recorded Activity values for a group of molecules are listed next.
# System: Fusobacterium varium
# procedure text: Antibacterial activity against Fusobacterium varium assessed as susceptible isolates by CLSI agar dilution method
# Type: functional
The response must be a number in % with no trailing unit.

Use these answered entries as a reference point.
[[record]]
molecule = "O=C(N[C@H](CO)[C@H](O)c1ccc([N+](=O)[O-])cc1)C(Cl)Cl [CHLORAMPHENICOL]"
readout_units = "%"
quantitative_result = 96

[[record]]
molecule = "C[C@@H](O)[C@H]1C(=O)N2C(C(=O)O)=C(SCCNC=N)C[C@H]12 [IMIPENEM ANHYDROUS]"
readout_units = "%"
quantitative_result = 96


Continue with the next molecule.
// sample C[C@@H](O)[C@H]1C(=O)N2C(C(=O)O)=C(S[C@@H]3CN[C@H](C(=O)N(C)C)C3)[C@H](C)[C@H]12 [MEROPENEM] , its Activity was 92
